assay: Steady-state plasma pharmacokinetics of abacavir; assay type: in vivo, human (HIV-infected subjects); details: human, plasma, 600 mg
Quantity Measured: AUC(0-t)

Enquiry: May I ask what AUC(0-t) has been recorded for Nc1nc(NC2CC2)c2ncn([C@H]3C=C[C@@H](CO)C3)c2n1 ?
Return: 13500 ng·h/mL
